Each recorded value in this set is attributed to PubChem BioAssay (NCI).

- Tested on: MDA-MB-435 melanoma
- protocol: NCI-60 one-dose screen, 48 h
- run.parameters: 10 µM unless noted
The panel holds about 83,000 compounds, 20% with a hit somewhere; the sample as a whole holds those more often. Activity calls are given as the source filed them. The calls were made as follows: active = growth percent below 10; inactive = the rest.
Classes used: active, inactive

| entry.smiles | label.class |
| --- | --- |
| CC[C@@H](C)[C@H](NC(=O)Cn1cc(CNC(=O)[C@@H](NC(=O)OCc2ccccc2)C(C)C)nn1)C(=O)O | inactive |
| COc1cccc2c1C=C1CCCCC3=Cc4c(OC)cccc4OC13O2 | active |
| COc1ccc(/C=C2\CCC/C(=C\c3ccc(OC)c(OC)c3)C2=O)cc1OC | active |
| O=C1C(=O)c2c(ccc3ccccc23)-c2ccccc21 | active |
| COc1ccc(Cn2cc(Cn3cc(C=C4C(=O)NC(=O)NC4=O)c4ccccc43)nn2)cc1 | inactive |
| CCOc1ccccc1CN1CCc2nc3cc(C(C)(C)C)[nH]n3c(=O)c2C1 | inactive |

---

- Tested on: NCI/ADR-RES ovarian
- protocol: NCI-60 one-dose screen, 48 h (100 = growth as untreated, 0 = no growth, -100 = all killed)
- run.parameters: 10 µM unless noted
The panel holds about 83,000 compounds, 20% with a hit somewhere; the sample as a whole holds those more often.
metric: growth (%)

| compound | result.number |
| --- | --- |
| CC[C@@H](C)[C@H](NC(=O)Cn1cc(CNC(=O)[C@@H](NC(=O)OCc2ccccc2)C(C)C)nn1)C(=O)O | 105 |
| O=C1/C(=C/c2ccc(O)cc2)COc2ccc(O)cc21 | 98.7 |
| CC1CCCCN1CCCNC(=O)c1ccc2c(c1)sc1nc(-c3ccc(F)cc3)cn12 (stereo not drawn) | 87.6 |
| Cc1ccc(OCCCCCCNCCO)c(C)c1 | 8.9 |
| CCOc1cccc(/C=N/NC(=O)C(=O)Nc2cccc(C(F)(F)F)c2)c1O | 9.74 |
| COc1ccc(Cn2c(Br)c3c(c2-c2cc(OC)c(OC)c(OC)c2)CCc2sc(NC(C)=O)nc2-3)cc1 | 27.1 |
| COc1ccc(C2C3=C(COC3=O)N(CCO)c3cc4c(cc32)CCC4)cc1 (stereo not drawn) | 65.3 |
| COC(=O)C1=Nc2ccc(F)cc2/C1=C/c1sc(=S)[nH]c1O | 7.28 |
| O=CCCCC(O)C=O (stereo not drawn) | 99.2 |
| COc1cc(-c2c3c(c(Br)n2Cc2ccccc2)-c2nc(N)sc2CC3)cc(OC)c1OC | 87.4 |
| O=C(Nc1ccccc1O)c1ccc(Oc2cccc(C(=O)Nc3ccccc3O)c2)cc1 | 5.02 |
| Oc1c(C(Nc2ccccn2)c2cccc(Oc3ccccc3)c2)ccc2cccnc12 (stereo not drawn) | -81.1 |
| COc1ccc(S(=O)(=O)N(Cc2ccc3c(n2)C=CC(C)(C)O3)C2CCC2)cc1OC | 6.95 |

---

- Tested on: HCT-15 colon
- protocol: NCI-60 one-dose screen, 48 h (100 = growth as untreated, 0 = no growth, -100 = all killed)
- run.parameters: 10 µM unless noted
About 83,000 compounds went through this panel and 20% of them were active in at least one assay; those are over-represented in the sample as a whole.
Reported growth values for the following molecules.

| molecule | unit.annotation | growth |
| --- | --- | --- |
| Cc1cccc(NC(=O)c2sc3nc4c(cc3c2N)CCCC4)c1C | % | 16.2 |
| Cn1c(C(=O)c2cccc3ccccc23)nc2ccccc21 | % | 29.4 |
| CCOC(=O)c1cc2c(n1Cc1cc(OC)cc(OC)c1)-c1oncc1CCC2 | % | 24.2 |
| CC(=S)NC(=O)C(=O)/C=C1/NC(=O)C(=O)S1 | % | 102 |
| N#CC(C#N)=Cc1c(-c2ccccc2)[nH]c2ccccc12 | % | 35.3 |
| COc1ccc(Cn2c(Br)c3c(c2-c2cc(OC)c(OC)c(OC)c2)CCc2sc(NC(C)=O)nc2-3)cc1 | % | 51.9 |
| Nc1ccc(-c2ccc(-c3ccccc3N)c3[nH]c4ccccc4c23)cc1 | % | 19.5 |
| CCN1CCN(c2cc(C)c3cc(NC(=O)c4ccc(OC)c(OC)c4)ccc3n2)CC1 | % | 30.3 |
| O=CCCCC(O)C=O (stereo not given) | % | 108 |
| COc1cccc(/C(C#N)=C/c2nc3c(N4CCOCC4)nc(Cl)nc3n2C)c1 | % | -46.4 |
| O=C(/C=C/c1cccc(Cl)c1)OCc1ccc2cc1OCC#C/C=C\C#CCO2 | % | 102 |
| O=C(c1ccccc1)N(C(=S)NCCc1ccc(Cl)cc1)c1ccccc1 | % | 86.2 |
| COc1ccc2sc(N(Cc3cccnc3)C(=O)c3ccc(C#N)cc3)nc2c1 | % | 66.1 |
| Cc1c(C(=O)OCCO)cc(-c2ccc(Cl)cc2)n1-c1ccc(Cl)cc1Cl | % | 53.6 |
| Cc1ccc(N=NC2C(=O)N(c3ccc(Cl)cc3)N(c3ccc(Cl)cc3)C2=O)cc1 | % | 98.3 |
| COC(=O)[C@H]1CCCN1C(=O)[C@H]1CCCN1C(=O)[C@H](Cc1c[nH]c2ccccc12)NC(=S)Nc1cc(C(F)(F)F)cc(C(F)(F)F)c1 | % | 70.4 |
| CCOC(=O)c1cc2c(n1Cc1ccccc1OC)-c1oncc1CCC2 | % | 30.9 |
| CCC1=C[C@@H]2CN(C1)Cc1c([nH]c3ccccc13)[C@@](C(=O)OC)(c1cc3c(cc1OC)N(C)[C@H]1[C@@](O)(C(=O)OC)[C@H](OC(C)=O)[C@]4(CC)[C@@H]5C[C@@H]5CN5CC[C@]31[C@@H]54)C2 | % | 13.4 |
| CC(C)CCNCC(O)Cn1c2ccccc2c2ccccc21 (stereo not given) | % | 14.9 |
| COC(=O)/C(=C\c1c(-c2ccccc2)[nH]c2ccccc12)S(C)(=O)=O | % | 34.5 |

---

Some molecules, each annotated with its measured growth.
- Test system: NCI-H522 lung
- protocol: NCI-60 one-dose screen, 48 h (100 = growth as untreated, 0 = no growth, -100 = all killed)
- run.parameters: 10 µM unless noted
This is part of a sample that, as a whole, favours compounds with a hit. Of some 83,000 tested, about 20% had one in any assay.

| molecule | study.system | unit.annotation | growth |
| --- | --- | --- | --- |
| O=C1c2cc(Br)ccc2Oc2cc([N+](=O)[O-])ccc2N1c1ccc(I)cc1F | NCI-H522 lung | % | 96.2 |
| CCN1C(=O)N(CC)C2C1NN=c1s/c(=C3\C(=O)N(CC(C)(C)C)c4ccccc43)c(=O)n12 (centres undefined) | NCI-H522 lung | % | -4.26 |
| CCC(C)(C)C(=O)O[C@H]1C[C@@H](C)C=C2C=C[C@H](C)[C@H](CC[C@@H]3CC=CC(=O)O3)[C@H]21 | NCI-H522 lung | % | 39.4 |
| O=C(CCN1C(=O)c2ccccc2C1=O)Nc1ccc(Cl)cc1 | NCI-H522 lung | % | 66.3 |

---

- Test system: A549/ATCC NSCLC
- protocol: NCI-60 one-dose screen, 48 h (100 = growth as untreated, 0 = no growth, -100 = all killed)
- run.parameters: 10 µM unless noted
This is part of a sample that, as a whole, favours compounds with a hit. Of some 83,000 tested, about 20% had one in any assay.

| compound | growth [%] |
| --- | --- |
| COc1ccc(/C=C2/SC(=O)N(CC(=O)N3CCN(c4cc5c(cc4F)c(=O)c(C(=O)O)cn5C4CC4)CC3)C2=O)cc1 | 92.2 |
| OCCNc1nc(Nc2ccc(C3=NN(c4cc(Cl)cc(Cl)c4)C(c4ccc(C(F)(F)F)cc4)C3)cc2)nc(N2CCOCC2)n1 (stereo unspecified) | 59.2 |
| c1ccc2cc3c(Nc4ccc(N5CCOCC5)cc4)ccnc3cc2c1 | 85 |
| Cn1c(=O)n(C)c2cc(CNCCNc3ccnc4cc(Cl)ccc34)ccc21 | 70.3 |
| Cc1ccc(Nc2nc(N)c3ccccc3n2)cc1Cl | 48.1 |
| O=C(/C=C/c1ccccc1)c1ccc(Nc2nc(NCCO)nc(Nc3ccc(Cl)cc3)n2)cc1 | 64.6 |
| O=C(Nc1ccc(Br)cc1F)c1cc(F)ccc1O | 9.75 |
| Cc1ccc(NC2=CC(=O)C(=O)c3ccccc32)c(C)c1 | 5.75 |
| COc1ccc(/C=C/C(=O)c2ccc3cc(OC)c(OC)cc3c2)cc1OC | 19.5 |
| CC1=C(C(=O)OCC2CCN(C(=O)OC(C)(C)C)CC2)[C@H](c2cccc(Br)c2)C2=C(CC(C)(C)CC2=O)N1 | 17.3 |
| O=C(Nc1ccc(N2CCNCC2)cc1)c1[nH]ncc1Nc1cc(Oc2ccccc2)ncn1 | -49.8 |
| O=C(Nc1ccc(Br)cc1F)c1cc(I)ccc1O | 4.34 |
| CCN1C(=O)N(CC)C2Nn3c(s/c(=C4\C(=O)N(C(C)C)c5ccccc54)c3=O)=NC21 (stereo unspecified) | 30.4 |
| CCCCOCc1cc(CN2CCN(C)CC2)c(O)c2ncccc12 | 35.9 |
| N#CC(C#N)=Cc1c(-c2ccccc2)[nH]c2ccccc12 | 37.1 |
| COCCN(C(=O)Cc1cccs1)C(C(=O)NCc1ccc(OC)cc1)c1ccc(C(C)C)cc1 (stereo unspecified) | 87.2 |
